Hello, the source for this data is the Human Domainome abundance scans (Beltran et al. 2025), in case you need it.

B1: Lysine-specific demethylase 5C, residues 319 to 373; numbered along this chain, P41229 (parent)
chain: AQFIESYVCRMCSRGDEDDKLLLCDGCDDNYHIFCLLPPLPEIPKGVWRCPKCVM

- Variants of: B1
- test summary: abundance fitness (aPCA) (normalised: wild type 0, dead -1); higher = more abundant; growth selection in yeast, the domain comes from the species named
- recorded conditions: Homo sapiens
observed property: abundance fitness

mutation | reported result
R10E | -0.1

In one line, give reported abundance fitness of the entry `C12S` .
-0.855

Answer with reported abundance fitness of `K20P`
-0.043

Look up abundance fitness of `D16Q` and report it.
-0.16

Specify reported abundance fitness for the variant shown: `L22D`
-1.1

For the variant `F34K` , give its reported abundance fitness.
0.28

Quote abundance fitness reported for `V8S` please.
0.007

Output abundance fitness of `C35E`
-0.794

Entry `R10L` needs its abundance fitness filled in; supply it.
0.021

Indicate the recorded abundance fitness value for this variant: `S13Q`
-0.183

State its abundance fitness: `C35Q`
-1.03

Specify reported abundance fitness for the variant shown: `D28A`
0.092

Fill in abundance fitness for record `N30S`
-0.068

Specify reported abundance fitness for the variant shown: `C9G`
-0.655

Return reported abundance fitness. Input variant: `D18L`
0.052

For the variant `D19Q` , give its measured abundance fitness value.
-0.014
